# assay_details: Biodistribution in BALB/c nude mice bearing A431-CCK2R/A431-mock xenografts
# Type: in vivo
# experimental_parameters: female, athymic BALB/c nude, mouse, blood, iv, 20 pmol, total radioactivity, xenografted BALB/c nude mice, i.v., ~20 pmol, 4 h p.i. (indium-111 or lutetium-177), mean ± SD n = 4; read-out: Uptake in blood
Where a SMILES comes first, the peptide text is derived from it. [ ]: non-standard residue; d: D form. The star is where a group is joined. DOTA = O=C(O)CN1CCN(CC(=O)O)CCN(CC(=O)*)CCN(CC(=O)O)CC1; 1Nal = N[C@@H](Cc1cccc2ccccc12)C(=O)O; NMeNle = CCCC[C@H](NC)C(=O)O
outcome_measure: tissue uptake at 4 h (%ID/g)
One number for each entry, in %ID/g.

Check out these entries, answers already filled in.
compound	units	endpoint_result
CCCC[C@@H](C(=O)N[C@@H](CC(=O)O)C(=O)N[C@@H](Cc1ccc2ccccc2c1)C(N)=O)N(C)C(=O)[C@H](Cc1c[nH]c2ccccc12)NC(=O)CNC(=O)[C@H](Cc1ccc(O)cc1)NC(=O)[C@H](C)NC(=O)[C@@H](CCC(=O)O)NC(=O)CN1CCN(CC(=O)O)CCN(CC(=O)O)CCN(CC(=O)O)CC1 [[^111In]In-DOTA-[2Nal^8]MGS5, metal not drawn]	%ID/g	0.06
CCCC[C@@H](C(=O)N[C@@H](CC(=O)O)C(=O)N[C@@H](Cc1cccc2ccccc12)C(=O)NC)N(C)C(=O)[C@H](Cc1c[nH]c2ccccc12)NC(=O)CNC(=O)[C@H](Cc1ccc(O)cc1)NC(=O)[C@H](C)NC(=O)[C@@H](CCC(=O)O)NC(=O)CN1CCN(CC(=O)O)CCN(CC(=O)O)CCN(CC(=O)O)CC1 [[^111In]In-DOTA-MGS5[NHCH3], metal not drawn]	%ID/g	0.08
CCCC[C@@H](C(=O)N[C@@H](CC(=O)O)C(=O)N(C)[C@@H](Cc1cccc2ccccc12)C(N)=O)N(C)C(=O)[C@H](Cc1c[nH]c2ccccc12)NC(=O)CNC(=O)[C@H](Cc1ccc(O)cc1)NC(=O)[C@H](C)NC(=O)[C@@H](CCC(=O)O)NC(=O)CN1CCN(CC(=O)O)CCN(CC(=O)O)CCN(CC(=O)O)CC1 [[^111In]In-DOTA-[(N-Me)1Nal^8]MGS5, metal not drawn]	%ID/g	0.19

Please examine the following record next.
[ask] Quickly give me recorded tissue uptake at 4 h for CCCC[C@@H](C(=O)N[C@@H](CC(=O)O)C(=O)N[C@@H](Cc1cccc2ccccc12)C(N)=O)N(C)C(=O)[C@H](Cc1c[nH]c2ccccc12)NC(=O)CNC(=O)[C@H](Cc1ccc(O)cc1)NC(=O)[C@H](C)NC(=O)[C@@H](CCCCN)NC(=O)CN1CCN(CC(=O)O)CCN(CC(=O)O)CCN(CC(=O)O)CC1 [[^111In]In-DOTA-[DLys^1]MGS5, metal not drawn] ({DOTA}-[dK]AYGW[NMeNle]D[1Nal]-NH2)
[reply] 0.2
